Hey, just so you know, these numbers are from ChEMBL document CHEMBL1124557.

Assign inhibition in vivo at 1 mg/kg to each entry below.
- System: Cavia porcellus
- EXPERIMENT_DESCRIPTION: Ability to prevent PAF-induced bronchoconstriction in guinea pig when administered at a dose of 1 mg/kg intravenously
- Type: functional
- CONDITION_SUMMARY: route intravenous
Dear colleague, please return just the value in %, with no unit written.

Specify reported inhibition in vivo at 1 mg/kg for the compound shown: COc1cccc(/C(=C/C=C/C(=O)NCCCCc2cccnc2)c2cccc(F)c2)c1 90

Specify reported inhibition in vivo at 1 mg/kg for the compound shown: COc1ccc(C(=C/C=C/C(=O)N[C@@H](CCCc2cccnc2)C2CC2)c2ccc(OC)cc2)cc1 98

Specify reported inhibition in vivo at 1 mg/kg for the compound shown: COc1ccc(C(=C/C=C/C(=O)NC(C)(C)CCCc2cccnc2)c2ccc(OC)cc2)cc1 97

Specify reported inhibition in vivo at 1 mg/kg for the compound shown: COc1ccc(C(=C/C=C/C(=O)Nc2ccc(Cc3cccnc3)cc2)c2ccc(OC)cc2)cc1 3

Specify reported inhibition in vivo at 1 mg/kg for the compound shown: COc1ccc(C(=C/C=C/C(=O)NC(C)CCCc2ccc(C)nc2)c2ccc(OC)cc2)cc1 (centres undefined) 5

Specify reported inhibition in vivo at 1 mg/kg for the compound shown: C[C@H](CCCc1cccnc1)NC(=O)/C=C/C=C(c1ccc(F)cc1)c1ccc(F)cc1 70

Specify reported inhibition in vivo at 1 mg/kg for the compound shown: COc1ccc(C(=C/C=C/C(=O)NCCOCc2cccnc2)c2ccc(OC)cc2)cc1 48

Specify reported inhibition in vivo at 1 mg/kg for the compound shown: Cc1ccc(C(=C/C=C/C(=O)N[C@H](C)CCCc2cccnc2)c2ccc(C)cc2)cc1 97

Specify reported inhibition in vivo at 1 mg/kg for the compound shown: CCC/C(=C\C=C\C(=O)N[C@H](C)CCCc1cccnc1)c1ccc(OC)cc1 86

Specify reported inhibition in vivo at 1 mg/kg for the compound shown: COc1cccc(C(=C/C=C/C(=O)N[C@H](C)CCCc2cccnc2)c2cccc(OC)c2)c1 88

Specify reported inhibition in vivo at 1 mg/kg for the compound shown: COc1ccc(/C=C/C=C/C(=O)N[C@H](C)CCCc2cccnc2)cc1 -17

Specify reported inhibition in vivo at 1 mg/kg for the compound shown: COc1ccccc1C(=C/C=C/C(=O)NCCCCc1cccnc1)c1ccccc1OC 40

Specify reported inhibition in vivo at 1 mg/kg for the compound shown: C[C@@H](CCCc1cccnc1)NC(=O)/C=C/C=C(c1cccc(F)c1)c1cccc(F)c1 34

Specify reported inhibition in vivo at 1 mg/kg for the compound shown: CC[C@@H](CCCc1cccnc1)NC(=O)/C=C/C=C(c1ccc(OC)cc1)c1ccc(OC)cc1 44

Specify reported inhibition in vivo at 1 mg/kg for the compound shown: COc1ccc(C(=C/C=C/C(=O)N[C@H](C)CCCc2cccnc2)c2ccc(OC)c(OC)c2)cc1OC 99

Specify reported inhibition in vivo at 1 mg/kg for the compound shown: Cc1nnc2n1-c1sc(CCC(=O)N3CCOCC3)cc1C(c1ccccc1Cl)=NC2 99

Specify reported inhibition in vivo at 1 mg/kg for the compound shown: COc1ccc(C(=C/C=C/C(=O)NC(C)CCCc2cccnc2C)c2ccc(OC)cc2)cc1 (centres undefined) 47

Specify reported inhibition in vivo at 1 mg/kg for the compound shown: COc1cccc(/C(=C\C=C\C(=O)NCCCCc2cccnc2)c2cccc(F)c2)c1 88

Specify reported inhibition in vivo at 1 mg/kg for the compound shown: Cc1ccc(C(=C/C=C/C(=O)NCCCCc2cccnc2)c2ccc(C)cc2)cc1 95
